- procedureDetails: Assay 1: stability (influencing factor tests: high temperature, high humidity, illumination) of amorphous form and crystal forms I, II, VII; content and purity by HPLC
- Format: physicochemical
- appliedConditions: High temperature 60° C., Day 14
Exercise: state measured Purity for each of the molecules provided.
Only the number, expressed in %, is required.

Which Purity is listed for CN(C)c1cc(CN2CC3CC3C2)c(O)c2c1C[C@H]1C[C@H]3[C@H](N(C)C)C(O)=C(C(N)=O)C(=O)[C@@]3(O)C(O)=C1C2=O (stereo partly shown) [Amorphous form] ? 94.3

Which Purity is listed for CN(C)c1cc(CN2CC3CC3C2)c(O)c2c1C[C@H]1C[C@H]3[C@H](N(C)C)C(O)=C(C(N)=O)C(=O)[C@@]3(O)C(O)=C1C2=O (stereo partly shown) [Crystal form VII] ? 96.2

Which Purity is listed for CN(C)c1cc(CN2CC3CC3C2)c(O)c2c1C[C@H]1C[C@H]3[C@H](N(C)C)C(O)=C(C(N)=O)C(=O)[C@@]3(O)C(O)=C1C2=O (stereo partly shown) [Crystal form I] ? 97.7

Which Purity is listed for CN(C)c1cc(CN2CC3CC3C2)c(O)c2c1C[C@H]1C[C@H]3[C@H](N(C)C)C(O)=C(C(N)=O)C(=O)[C@@]3(O)C(O)=C1C2=O (single isomer, unassigned) [Crystal form II] ? 96.0

----------
- procedureDetails: Assay 1: stability (influencing factor tests: high temperature, high humidity, illumination) of amorphous form and crystal forms I, II, VII; content and purity by HPLC
- Assay type: physicochemical
- appliedConditions: 25° C./75% ± 5% RH, Day 14
Exercise: state measured Purity for each of the compounds provided.
Only the number, expressed in %, is required.

Which Purity is listed for CN(C)c1cc(CN2CC3CC3C2)c(O)c2c1C[C@H]1C[C@H]3[C@H](N(C)C)C(O)=C(C(N)=O)C(=O)[C@@]3(O)C(O)=C1C2=O (single isomer, unassigned) [Crystal form II] ? 96.2

Which Purity is listed for CN(C)c1cc(CN2CC3CC3C2)c(O)c2c1C[C@H]1C[C@H]3[C@H](N(C)C)C(O)=C(C(N)=O)C(=O)[C@@]3(O)C(O)=C1C2=O (stereo partly shown) [Crystal form I] ? 98.1

Which Purity is listed for CN(C)c1cc(CN2CC3CC3C2)c(O)c2c1C[C@H]1C[C@H]3[C@H](N(C)C)C(O)=C(C(N)=O)C(=O)[C@@]3(O)C(O)=C1C2=O (stereo partly shown) [Crystal form VII] ? 97.2

Which Purity is listed for CN(C)c1cc(CN2CC3CC3C2)c(O)c2c1C[C@H]1C[C@H]3[C@H](N(C)C)C(O)=C(C(N)=O)C(=O)[C@@]3(O)C(O)=C1C2=O (stereo partly shown) [Amorphous form] ? 96.7
